Biological target: B-RAF G466V (Homo sapiens, UniProt P15056, G466V)
Construct: expressed in transfected cells; host or cells: T-Rex 293 cells (Invitrogen #R71007)
Sequence (P15056 whole entry G466V): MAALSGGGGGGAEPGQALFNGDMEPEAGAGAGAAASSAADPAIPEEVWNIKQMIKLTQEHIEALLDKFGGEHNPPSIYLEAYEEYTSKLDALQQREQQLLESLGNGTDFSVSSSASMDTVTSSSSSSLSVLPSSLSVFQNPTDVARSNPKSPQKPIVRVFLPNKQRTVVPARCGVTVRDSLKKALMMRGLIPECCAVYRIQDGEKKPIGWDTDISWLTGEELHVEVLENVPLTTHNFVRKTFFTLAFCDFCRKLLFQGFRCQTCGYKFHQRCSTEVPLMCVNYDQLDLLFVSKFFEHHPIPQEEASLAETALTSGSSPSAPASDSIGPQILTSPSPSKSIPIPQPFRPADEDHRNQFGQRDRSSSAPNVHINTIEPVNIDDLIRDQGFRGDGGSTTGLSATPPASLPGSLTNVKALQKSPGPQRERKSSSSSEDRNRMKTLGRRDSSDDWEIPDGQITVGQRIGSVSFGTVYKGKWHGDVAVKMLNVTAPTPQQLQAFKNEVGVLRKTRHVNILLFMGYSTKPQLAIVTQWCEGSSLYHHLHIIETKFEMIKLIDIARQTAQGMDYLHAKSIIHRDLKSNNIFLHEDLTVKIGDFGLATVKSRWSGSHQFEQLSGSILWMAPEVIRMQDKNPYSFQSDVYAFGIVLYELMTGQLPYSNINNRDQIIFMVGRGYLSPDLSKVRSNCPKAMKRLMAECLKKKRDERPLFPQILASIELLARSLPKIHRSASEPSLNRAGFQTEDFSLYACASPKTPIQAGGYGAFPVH
Assay: Target protein degradation, assay D: T-Rex 293 cells, HA-BRAF_G466V, 384 well format
Format: cell-based
Details: Assay D, T-Rex 293 HA-BRAF_G466V cells, 24 hours, Examples 83-269
// DC50 lookup, one value per entry

INSERT INTO measurements (compound, tgt, endpoint_value) VALUES
  ('N#Cc1c(NS(=O)(=O)N2CC[C@@H](F)C2)ccc(F)c1Oc1ccc2ncn(-c3ccc(N4CCN(CC5CCN(c6ccc(C7CCC(=O)NC7=O)cc6F)CC5)CC4)cc3)c(=O)c2c1 (single isomer, unassigned)', 'B-RAF G466V (Homo sapiens, UniProt P15056, G466V)', '1 to 10 nM');

Entry O=C1CCC(N2Cc3cc(N4CCC(CN5CCN(c6ccc(-n7cnc8ccc(Oc9c(F)ccc(NS(=O)(=O)N%10CC[C@@H](F)C%10)c9Cl)cc8c7=O)cc6)CC5)CC4)ccc3C2=O)C(=O)N1 (stereo partly drawn) , DC50 reported as 1 to 10 nM

Entry N#Cc1c(NS(=O)(=O)N2CC[C@@H](F)C2)ccc(F)c1Oc1ccc2ncn(-c3cnc(N4CCN(CCN5CCN(c6ccc(C7CCC(=O)NC7=O)cc6F)CC5)CC4)nc3)c(=O)c2c1 (stereo partly drawn) , DC50 reported as 1 to 10 nM

Entry N#Cc1c(NS(=O)(=O)N2CC[C@@H](F)C2)ccc(F)c1Oc1ccc2ncn(-c3ccc(N4CC5(CC(CN6CCN(c7ccc8c(c7)CN([C@H]7CCC(=O)NC7=O)C8=O)CC6)C5)C4)cc3)c(=O)c2c1 , DC50 reported as 1 to 10 nM

Entry N#Cc1c(NS(=O)(=O)N2CC[C@@H](F)C2)ccc(F)c1Oc1ccc2ncn(-c3ccc(N4CCC(c5ccc6c(c5)C(=O)N(C5CCC(=O)NC5=O)C6=O)CC4)nc3)c(=O)c2c1 (stereo partly drawn) , DC50 reported as > 30 nM

Entry N#Cc1c(NS(=O)(=O)N2CC[C@@H](F)C2)ccc(F)c1Oc1ccc2ncn(-c3ccc(N4CCC(CCN5CCN(c6ccc7c(c6)C(=O)N(C6CCC(=O)NC6=O)C7=O)CC5)CC4)nc3)c(=O)c2c1 (stereo partly drawn) , DC50 reported as 10 to 30 nM
